assay: Selectivity index, ratio of CC50 for human TZM-bl cells to EC50 for R5-tropic HIV1 subtype B BaL infected in human TZM-bl cells; assay type: toxicity, cell-based; details: TZM-bl cells, read-out: Selectivity Index
Class Fulfilled: selectivity ratio at least 2000. Class Not fulfilled: selectivity ratio below 2000.

molecule="Cc1cc(/C=C/C#N)ccc1Nc1ccc(F)c(Nc2ccc(C#N)cc2)n1 (mixture of isomers)" class_assignment=Fulfilled
molecule="Cc1cc(/C=C/C#N)cc(C)c1Nc1cccc(Nc2ccc(C#N)cc2)n1 (mixture of isomers)" class_assignment=Fulfilled
molecule="Cc1cc(/C=C/C#N)cc(F)c1Nc1cccc(Nc2ccc(C#N)cc2)n1 (mixture of isomers)" class_assignment=Fulfilled
molecule=Cc1ccc(Oc2ccc(F)c(Nc3ccc(C#N)cc3)n2)cc1 class_assignment="Not fulfilled"
molecule=Cc1cc(/C=C/C#N)cc(C)c1Nc1ccc(F)c(Nc2ccc(/C=C/C#N)cc2)n1 class_assignment=Fulfilled

Task: Check this molecule for selectivity ratio at or above 2000: `Cc1cc(/C=C/C#N)ccc1Nc1ccc(F)c(Nc2ccc(F)cc2)n1`
Output: Not fulfilled

Task: What about this molecule? `Cc1cc(/C=C/C#N)ccc1Nc1ccc(F)c(Nc2ccc(Cl)cc2)n1`
Output: Not fulfilled

Task: What about this molecule? `Cc1cc(C#N)cc(C)c1Nc1ncc(F)c(Nc2ccc(C#N)cc2)n1`
Output: Fulfilled

Task: What about this molecule? `Cc1cc(C#N)cc(C)c1Nc1ccc(F)c(Nc2ccc(F)cc2)n1`
Output: Not fulfilled

Task: What about this molecule? Cc1cc(/C=C/C#N)cc(C)c1Nc1ccc(F)c(Nc2ccc(F)cc2)n1 (mixture of isomers)
Output: Fulfilled

Task: What about this molecule? `Cc1cc(/C=C/C#N)cc(F)c1Nc1ccc(F)c(Nc2ccc(C#N)cc2)n1`
Output: Fulfilled

Just for reference, ChEMBL document CHEMBL3785072 is where these values come from.
